// Percent Control lookup, one value per entry
- Test system: FLT3(ITD)
- Setup Conditions: Compound Concentration (nM):1000;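 also: KINOMEscan scanMAX binding as percent activity remaining versus control; lower means stronger binding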
Readout Name: Percent Control (%)

1) NS(=O)(=O)c1ccc(Nc2ncc(-c3ccccc3)o2)cc1 [GW572399X] :: 53
2) CC1=C(C(=O)Nc2ccc3[nH]ncc3c2)C(c2ccc3ccccc3c2)CC(=O)N1 (stereo not shown) [GSK270822A] :: 100
3) COc1cccc(-c2c[nH]c3c(N/N=C/c4ccncc4)ncnc23)c1 [GW814408X] :: 21
4) CN1CCN(C(=O)c2ccc(NC(=O)Nc3ccc(N(C)c4ccnc(Nc5ccc(CS(C)(=O)=O)cc5)n4)cc3)cc2)CC1.Cl [GW830263A] :: 0.3

----------
- Tested on: CDC2L1
- Construct: gene CDK11B
- Setup Conditions: Compound Concentration (nM):1000
// Percent Control lookup, one value per entry
Readout Name: Percent Control

1) CN(C)c1cc2c(Nc3ccc4c(cnn4Cc4ccccc4)c3)ncnc2cn1 [GW282974X] :: 100%
2) CCn1c(-c2nonc2N)nc2c(C#CC(C)(C)O)nc(OCCNC)cc21.Cl [GSK949675] :: 100%
3) Cc1cc(O)cc(C)c1/C=C/c1cncc(C(N)=O)c1 [GW435821X] :: 100%
4) COc1cc(/C=N/Nc2ncnc3[nH]ncc23)ccc1O [GW578748X] :: 100%
5) CCS(=O)(=O)c1ccc(OC)c(Nc2ncc(-c3cccc(F)c3)o2)c1 [GW621970X] :: 100%
6) Cl.c1ccc(Cc2nc3ccc(Nc4ncnc5ccccc45)cc3[nH]2)cc1 [GR269666A] :: 100%
7) COc1ccc2[nH]c3c4[nH]c5ccc(OC)cc5c4c4c(c3c2c1)C(=O)NC4=O [GW296115X] :: 90%
8) CC(C)COC(=O)c1ccc2c(c1)/C(=C/Nc1ccc(S(N)(=O)=O)cc1)C(=O)N2 [GW416981X] :: 100%
9) NS(=O)(=O)c1ccc(N/N=C2\C(=O)Nc3ccc(C(=O)NCCc4c[nH]cn4)cc32)cc1 [GW300660X] :: 100%
10) NS(=O)(=O)c1ccc(Nc2ncc(-c3ccccc3)o2)cc1 [GW572399X] :: 100%
11) CC1=C(C(=O)Nc2ccc3[nH]ncc3c2)C(c2ccc(Cl)c(Cl)c2)CC(=O)N1 (centres unmarked) [GSK299115A] :: 100%
12) O=C1Nc2ccc(C(=O)c3ccco3)cc2C1=Cc1cc(Cl)c(O)c(Cl)c1 [GW406108X] :: 100%
13) COc1ccc2cc(-c3c(-c4ccncc4)nc(-c4ccc(S(C)(=O)=O)cc4C)n3C)ccc2c1 [SB-633825] :: 92%
14) COc1ccc(COc2ccc(Cc3cnc(N)nc3N)cc2OC)cc1 [GW632580X] :: 97%
15) COc1cc2ncnc(Nc3ccc4c(cnn4Cc4ccccc4)c3)c2cc1OC.Cl [GW282449A] :: 100%
16) Cl.O=C(O[C@H]1CN[C@H](C#Cc2cc3ncnc(Nc4ccc5c(cnn5Cc5ccccc5)c4)c3s2)C1)N1CCOCC1 [GSK200398A] :: 87%
17) CCS(=O)(=O)c1ccc(OC)c(Nc2ncc(-c3cccc(OC)c3)o2)c1 [GW580509X] :: 100%
18) COc1cc(N2CCN(C(C)C)CC2)ccc1Nc1nc(Nc2ccc(F)cc2C(=O)NC[C@@H](O)CO)c2cc[nH]c2n1 [GSK1392956A] :: 100%
19) COc1cc2ncn(-c3cc(O[C@H](C)c4ccccc4Cl)c(C(N)=O)s3)c2cc1OC [GSK237701A] :: 100%
20) COc1ccccc1-c1cc(/C=C2\C(=O)Nc3ncc(Br)cc32)cc(Br)c1O [GW442130X] :: 100%
21) COc1cc(C=NNc2ncnc3c2cnn3-c2ccccc2)ccc1O [GW513184X] :: 100%
22) COc1cc(C)c(N(C)C(=O)CN(C)C)cc1Nc1nc(Nc2cccc(F)c2C(N)=O)c2cc[nH]c2n1 [GSK2219385] :: 100%
23) O=C(Nc1n[nH]c2nc(-c3ccc(O)cc3)c(Br)cc12)C1CC1 [SB-725317] :: 100%
24) Cl.O=C(Nc1ccc(Oc2ccc3[nH]c(NC(=O)c4ccccc4)nc3c2)cc1)Nc1cc(C(F)(F)F)ccc1F [GW709042A] :: 92%
25) CN1CCN(C(=O)c2ccc(NC(=O)Nc3ccc(N(C)c4ccnc(Nc5ccc(CS(C)(=O)=O)cc5)n4)cc3)cc2)CC1.Cl [GW830263A] :: 67%
26) NS(=O)(=O)c1ccc(N/N=C2\C(=O)Nc3ccc(-c4cnco4)cc32)cc1 [GW276655] :: 100%

----------
- System: AURKC
- Setup Conditions: Compound Concentration (nM):1000
Use 80% as the dividing line for Percent Control, with the line itself on the condition met side and lower values as condition not met.

1) C[C@@H](Oc1cc(-n2cnc3ccc(OC4CCN(C)CC4)cc32)sc1C(N)=O)c1ccccc1Cl [GSK579289A] :: condition not met
2) C/C(Nc1ccc(S(N)(=O)=O)cc1)=C1/C(=O)Nc2ccccc21 [GW335962X] :: condition not met
3) Cl.O=C(Nc1ccc(Oc2ccc3[nH]c(NC(=O)c4ccco4)nc3c2)cc1)Nc1cc(C(F)(F)F)ccc1F [GW683134A] :: condition not met
4) COC(=O)Nc1nc2ccc(Oc3ccc(NC(=O)Nc4cc(C(F)(F)F)ccc4F)cc3)cc2s1.Cl [GW693917A] :: condition not met
5) CCn1c(-c2nonc2N)nc2c(C#CC(C)(C)O)nc(OCCNC)cc21.Cl [GSK949675] :: condition met
6) Cl.O=C(O[C@H]1CN[C@H](C#Cc2cc3ncnc(Nc4ccc5c(cnn5Cc5ccccc5)c4)c3s2)C1)N1CCOCC1 [GSK200398A] :: condition met
7) NS(=O)(=O)c1ccc(N/N=C2\C(=O)Nc3ccc(C(=O)NCCc4c[nH]cn4)cc32)cc1 [GW300660X] :: condition met

----------
// Percent Control lookup, one value per entry
- Tested on: CDKL3
- Setup Conditions: Compound Concentration (nM):1000
Readout Name: Percent Control (%)

1. COc1cc2ncnc(Nc3ccc4c(cnn4Cc4ccccc4)c3)c2cc1OC.Cl [GW282449A] :: 100
2. NS(=O)(=O)c1ccc(N/N=C2\C(=O)Nc3ccc(-c4cnco4)cc32)cc1 :: 37
3. C/C(Nc1ccc(S(N)(=O)=O)cc1)=C1/C(=O)Nc2ccccc21 [GW335962X] :: 94
4. COc1cc(C)c(N(C)C(=O)CN(C)C)cc1Nc1nc(Nc2cccc(F)c2C(N)=O)c2cc[nH]c2n1 :: 100
5. NS(=O)(=O)c1ccc(Nc2ncc(-c3ccccc3)o2)cc1 [GW572399X] :: 100
6. COc1ccccc1-c1cc(/C=C2\C(=O)Nc3ncc(Br)cc32)cc(Br)c1O [GW442130X] :: 93
7. NS(=O)(=O)c1ccc(N/N=C2\C(=O)Nc3ccc(C(=O)NCc4ccncc4)cc32)cc1 [GW300657X] :: 84
8. COc1ccc(COc2ccc(Cc3cnc(N)nc3N)cc2OC)cc1 [GW632580X] :: 90
9. Cl.O=S1CCN(Cc2ccc(-c3ccc4ncnc(Nc5ccc(OCc6ccccc6)c(F)c5)c4c3)o2)CC1 [GW576924A] :: 100
10. CN(C)CCNC(=O)Nc1ccc(N(C)c2ccnc(Nc3ccc(CS(C)(=O)=O)cc3)n2)cc1.Cl [GW830900A] :: 100
11. CN(C)c1cc2c(Nc3ccc4c(cnn4Cc4ccccc4)c3)ncnc2cn1 [GW282974X] :: 100

----------
- Test system: KIT-autoinhibited
- Setup Conditions: Compound Concentration (nM):1000
Readout Name: Percent Control (%)

1. Cl.O=S1CCN(Cc2ccc(-c3ccc4ncnc(Nc5ccc(OCc6ccccc6)c(F)c5)c4c3)o2)CC1 [GW576924A] :: 100
2. COc1ccc2[nH]c3c4[nH]c5ccc(OC)cc5c4c4c(c3c2c1)C(=O)NC4=O [GW296115X] :: 72
3. Nc1ncnc2occ(-c3ccc(NC(=O)Nc4cc(C(F)(F)F)ccc4F)cc3)c12 [GW770249X] :: 31
4. CCn1c(-c2nonc2N)nc2c(C#CC(C)(C)O)nc(OCCNC)cc21.Cl :: 100
5. COc1cc(C=NNc2ncnc3c2cnn3-c2ccccc2)ccc1O [GW513184X] :: 100
6. CN(C)CCNC(=O)Nc1ccc(N(C)c2ccnc(Nc3ccc(CS(C)(=O)=O)cc3)n2)cc1.Cl [GW830900A] :: 59
7. COc1cccc(-n2ncc3c(N/N=C/c4ccncc4)ncnc32)c1 [GW784752X] :: 100
8. CCc1ccc(Oc2nccc(-c3c(-c4ccc(F)cc4)ncn3C3CCNCC3)n2)cc1 :: 100

----------
- System: FLT3(N841I)
- Setup Conditions: Compound Concentration (nM):1000
Use 80% as the dividing line for Percent Control, with the line itself on the 1 side and lower values as -1.

1) Cl.O=C(Nc1ccc(Oc2ccc3[nH]c(NC(=O)c4ccco4)nc3c2)cc1)Nc1cc(C(F)(F)F)ccc1F [GW683134A] :: -1
2) C/C(Nc1ccc(S(N)(=O)=O)cc1)=C1/C(=O)Nc2ccccc21 [GW335962X] :: 1
3) NS(=O)(=O)c1ccc(N/N=C2\C(=O)Nc3ccc(C(=O)NCc4ccncc4)cc32)cc1 [GW300657X] :: -1
4) COc1cc(/C=N/Nc2ncnc3[nH]ncc23)ccc1O [GW578748X] :: 1
5) COC(=O)Nc1nc2ccc(Oc3ccc(NC(=O)Nc4cc(C(F)(F)F)ccc4F)cc3)cc2s1.Cl [GW693917A] :: 1
